For each entry below, report its Kd value.
- Target under test: 14-3-3ζ (Homo sapiens)
- Construct: hexa-His; made in house; host or cells: E. coli BL21(DE3) Star
- Sequence (P63104 1-245): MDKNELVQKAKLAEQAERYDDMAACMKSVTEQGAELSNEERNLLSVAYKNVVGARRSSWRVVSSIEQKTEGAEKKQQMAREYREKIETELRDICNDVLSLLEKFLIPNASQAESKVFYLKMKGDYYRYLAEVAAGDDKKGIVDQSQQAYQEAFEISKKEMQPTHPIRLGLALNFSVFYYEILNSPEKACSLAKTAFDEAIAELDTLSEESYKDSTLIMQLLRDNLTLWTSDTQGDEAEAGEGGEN
- Test protocol: Biolayer interferometry (Octet RED96), immobilised biotinylated peptides, 14-3-3ζ in solution
- Type: binding
- Condition label: kinetic fit, peptide immobilised at 1 μg/ml, 25 mM Tris, 150 mM NaCl, 0.1% Tween-20, association 300 s, dissociation 300 s, typical experiment (n ≥ 3), NB = no binding
Square brackets hold non-standard residues; d marks the D form. Peptide text beside a SMILES is read from it. * marks the point of attachment. Geranylgeranyl = CC(C)=CCC/C(C)=C/CC/C(C)=C/CC/C(C)=C/C*; Biotin = O=C1N[C@H]2[C@H](CS[C@H]2CCCCC(=O)*)N1; Farnesyl = CC(C)=CCC/C(C)=C/CC/C(C)=C/C*; pS = N[C@@H](COP(=O)(O)O)C(=O)O; X1 = CC(C)=CCC/C(C)=C/C*; Ahx = NCCCCCC(=O)O; Prenyl = CC(C)=CC*
Lab book: enter the figure in nM, no units written.

Report Kd for CC(C)=CCC/C(C)=C/CC/C(C)=C/CC/C(C)=C/CSC[C@H](NC(=O)[C@H](COP(=O)(O)O)NC(=O)[C@H](CCCCN)NC(=O)[C@H](C)NC(=O)[C@H](CCCCN)NC(=O)[C@H](CC(=O)O)NC(=O)[C@H](CCCCN)NC(=O)[C@H](CCCNC(=N)N)NC(=O)[C@H](CC(C)C)NC(=O)[C@H](CC(=O)O)NC(=O)CCCCCNC(=O)CCCC[C@@H]1SC[C@@H]2NC(=O)N[C@@H]21)C(=O)O [+P+GG] ({Biotin-Ahx}-DLRKDKAK[pS]C(Geranylgeranyl)-OH) please.
23.2

Entry under review: CC(C)=CCSC[C@H](NC(=O)[C@H](COP(=O)(O)O)NC(=O)[C@H](CCCCN)NC(=O)[C@H](C)NC(=O)[C@H](CCCCN)NC(=O)[C@H](CC(=O)O)NC(=O)[C@H](CCCCN)NC(=O)[C@H](CCCNC(=N)N)NC(=O)[C@H](CC(C)C)NC(=O)[C@H](CC(=O)O)NC(=O)CCCCCNC(=O)CCCC[C@@H]1SC[C@@H]2NC(=O)N[C@@H]21)C(=O)O [+P+Ipr] ({Biotin-Ahx}-DLRKDKAK[pS]C(Prenyl)-OH) . Reported Kd?
556

Need Kd of CC(C)=CCC/C(C)=C/CSC[C@H](NC(=O)[C@H](COP(=O)(O)O)NC(=O)[C@H](CCCCN)NC(=O)[C@H](C)NC(=O)[C@H](CCCCN)NC(=O)[C@H](CC(=O)O)NC(=O)[C@H](CCCCN)NC(=O)[C@H](CCCNC(=N)N)NC(=O)[C@H](CC(C)C)NC(=O)[C@H](CC(=O)O)NC(=O)CCCCCNC(=O)CCCC[C@@H]1SC[C@@H]2NC(=O)N[C@@H]21)C(=O)O [+P+G] ({Biotin-Ahx}-DLRKDKAK[pS]C(X1)-OH) , thanks.
56.5

Bench note: what Kd did CC(C)=CCC/C(C)=C/CC/C(C)=C/CSC[C@H](NC(=O)[C@H](COP(=O)(O)O)NC(=O)[C@H](CCCCN)NC(=O)[C@H](C)NC(=O)[C@H](CCCCN)NC(=O)[C@H](CC(=O)O)NC(=O)[C@H](CCCCN)NC(=O)[C@H](CCCNC(=N)N)NC(=O)[C@H](CC(C)C)NC(=O)[C@@H](N)CC(=O)O)C(=O)O [+P+F] (H-DLRKDKAK[pS]C(Farnesyl)-OH) show?
32.4
